molecular target: GP IIb/IIIa (Homo sapiens, UniProt P05106+P08514); experiment: In Vitro Solid Phase Purified GP IIb/IIIa Binding Assay (biotinylated fibrinogen); details: biotinylated fibrinogen binding to immobilized purified GP IIb/IIIa; mean ± spread; read-out: αIIbβ3 IC50
Sequence (P08514 32-887 limits assumed, one chain of several): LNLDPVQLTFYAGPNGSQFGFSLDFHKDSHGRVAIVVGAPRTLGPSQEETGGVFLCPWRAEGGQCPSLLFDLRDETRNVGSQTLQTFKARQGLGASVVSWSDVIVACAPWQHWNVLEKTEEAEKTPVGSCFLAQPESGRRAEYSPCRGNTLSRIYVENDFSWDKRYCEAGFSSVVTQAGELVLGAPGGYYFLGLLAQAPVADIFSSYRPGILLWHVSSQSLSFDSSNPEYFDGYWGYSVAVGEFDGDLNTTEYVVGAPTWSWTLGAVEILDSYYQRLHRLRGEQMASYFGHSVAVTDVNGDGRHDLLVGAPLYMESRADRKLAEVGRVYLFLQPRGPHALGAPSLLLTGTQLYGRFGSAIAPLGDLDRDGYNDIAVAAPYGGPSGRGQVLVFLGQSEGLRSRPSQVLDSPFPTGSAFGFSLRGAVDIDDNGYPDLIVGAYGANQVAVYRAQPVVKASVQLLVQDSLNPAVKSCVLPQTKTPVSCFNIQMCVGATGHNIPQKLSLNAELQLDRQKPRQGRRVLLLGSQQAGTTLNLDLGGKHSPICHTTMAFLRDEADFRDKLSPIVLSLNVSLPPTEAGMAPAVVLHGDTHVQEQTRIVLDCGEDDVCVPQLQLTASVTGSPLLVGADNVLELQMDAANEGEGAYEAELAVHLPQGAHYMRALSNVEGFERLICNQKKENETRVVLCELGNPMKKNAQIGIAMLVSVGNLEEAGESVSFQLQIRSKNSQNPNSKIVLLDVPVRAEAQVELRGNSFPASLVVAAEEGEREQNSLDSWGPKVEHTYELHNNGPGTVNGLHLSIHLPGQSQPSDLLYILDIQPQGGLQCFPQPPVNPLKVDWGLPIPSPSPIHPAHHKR
Sequence (P08514 891-1039 partner limits assumed, one chain of several): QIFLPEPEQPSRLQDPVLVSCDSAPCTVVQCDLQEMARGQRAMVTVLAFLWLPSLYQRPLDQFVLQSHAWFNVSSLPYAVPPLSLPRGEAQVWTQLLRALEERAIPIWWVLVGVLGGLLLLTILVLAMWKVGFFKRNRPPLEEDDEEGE
pIC50: −log10 of the molar value.
readout: pIC50

Some entries whose results are on file:
compound: O=C(O)CC(CC1CCN(C(=O)CCc2ccc3c(n2)NCCC3)CC1)c1cccc(F)c1 (centres unmarked) [Cpd 30]
pIC50: 4.84

compound: O=C(O)CC(CC1CCN(C(=O)CCc2ccc3c(n2)NCCC3)CC1)c1ccc(Oc2ccccc2)cc1 (centres unmarked) [Cpd 43]
pIC50: 4.54

compound: COc1cccc(C(CC(=O)O)CC2CCN(C(=O)CCc3ccc4c(n3)NCCC4)CC2)c1 (racemic) [Cpd 59]
pIC50: 5.11

compound: O=C(O)CC(c1ccc2c(c1)OCO2)C1CCN(C(=O)CCc2ccc3c(n2)NCCC3)CC1 (centres unmarked) [Cpd 14]
pIC50: 5.30

compound: O=C(O)CC(CCC1CCN(C(=O)c2cccc(NC3=NCC(O)CN3)c2)CC1)c1ccc2c(c1)OCO2 (centres unmarked) [Cpd 54]
pIC50: 6.62

P = O=C(O)CC(c1ccc2c(c1)OCO2)C1CCN(C(=O)CCCc2ccc3c(n2)NCCC3)CC1 (centres unmarked) [Cpd 15]
Q = O=C(O)CC(c1ccc2c(c1)OCO2)C1CCN(C(=O)Cc2ccc3c(n2)NCCC3)CC1 (centres unmarked) [Cpd 16]
Consider P and Q . Which of these has its pIC50 at a higher number? Pick one; state its label.
P

----------
Molecular target: Human αvβ3 (Homo sapiens, UniProt P05106+P06756)
Construct: purchased Chemicon International Inc., Temecula, Calif
Sequence (P06756 31-889 limits assumed): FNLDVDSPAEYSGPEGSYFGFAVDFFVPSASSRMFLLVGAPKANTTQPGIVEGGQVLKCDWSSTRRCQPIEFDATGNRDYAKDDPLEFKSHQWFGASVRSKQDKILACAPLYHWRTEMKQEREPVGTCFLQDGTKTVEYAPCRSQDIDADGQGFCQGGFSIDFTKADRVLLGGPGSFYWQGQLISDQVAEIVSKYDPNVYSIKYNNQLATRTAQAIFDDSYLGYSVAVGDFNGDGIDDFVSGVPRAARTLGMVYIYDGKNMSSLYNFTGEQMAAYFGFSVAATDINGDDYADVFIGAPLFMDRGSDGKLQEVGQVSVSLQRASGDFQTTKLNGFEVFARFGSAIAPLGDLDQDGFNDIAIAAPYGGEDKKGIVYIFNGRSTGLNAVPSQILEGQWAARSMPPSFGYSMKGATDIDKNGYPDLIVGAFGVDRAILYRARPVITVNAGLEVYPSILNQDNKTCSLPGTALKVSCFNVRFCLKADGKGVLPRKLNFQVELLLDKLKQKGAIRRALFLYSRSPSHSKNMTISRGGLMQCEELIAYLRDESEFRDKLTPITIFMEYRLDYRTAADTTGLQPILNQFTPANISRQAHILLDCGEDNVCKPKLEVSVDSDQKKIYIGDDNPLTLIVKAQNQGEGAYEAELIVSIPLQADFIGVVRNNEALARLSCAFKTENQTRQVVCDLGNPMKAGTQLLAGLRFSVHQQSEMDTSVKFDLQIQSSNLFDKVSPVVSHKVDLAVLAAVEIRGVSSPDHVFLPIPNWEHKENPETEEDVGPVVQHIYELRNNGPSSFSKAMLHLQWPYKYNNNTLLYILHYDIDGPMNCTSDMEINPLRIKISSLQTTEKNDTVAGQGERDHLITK
Sequence (P06756 891-1048 partner limits assumed): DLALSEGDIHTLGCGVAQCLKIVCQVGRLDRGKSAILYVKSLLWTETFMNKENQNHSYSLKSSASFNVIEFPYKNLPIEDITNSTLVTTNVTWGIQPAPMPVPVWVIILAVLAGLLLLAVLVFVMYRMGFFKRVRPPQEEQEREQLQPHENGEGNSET
Sequence (P05106 27-788): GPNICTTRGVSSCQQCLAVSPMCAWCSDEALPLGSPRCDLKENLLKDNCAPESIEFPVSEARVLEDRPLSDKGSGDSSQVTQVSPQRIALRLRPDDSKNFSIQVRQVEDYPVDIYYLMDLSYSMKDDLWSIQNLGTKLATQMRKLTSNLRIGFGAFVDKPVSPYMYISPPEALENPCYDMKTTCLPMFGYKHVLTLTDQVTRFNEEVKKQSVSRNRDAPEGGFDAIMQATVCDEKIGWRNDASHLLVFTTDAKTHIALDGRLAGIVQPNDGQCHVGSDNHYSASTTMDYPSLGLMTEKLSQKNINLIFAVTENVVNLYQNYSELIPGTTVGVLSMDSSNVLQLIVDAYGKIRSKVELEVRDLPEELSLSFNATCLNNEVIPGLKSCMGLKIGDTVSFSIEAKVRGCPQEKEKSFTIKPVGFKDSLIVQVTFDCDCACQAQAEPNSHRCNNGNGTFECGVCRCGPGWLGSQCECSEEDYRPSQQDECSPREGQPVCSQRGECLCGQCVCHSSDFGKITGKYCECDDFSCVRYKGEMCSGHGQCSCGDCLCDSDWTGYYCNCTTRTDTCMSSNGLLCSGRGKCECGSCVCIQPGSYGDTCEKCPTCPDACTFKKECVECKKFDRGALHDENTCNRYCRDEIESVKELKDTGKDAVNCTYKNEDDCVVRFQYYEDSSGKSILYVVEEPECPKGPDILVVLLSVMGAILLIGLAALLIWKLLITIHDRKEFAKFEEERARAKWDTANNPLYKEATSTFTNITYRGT
Assay: In Vitro Solid Phase Purified αvβ3 Binding Assay (vitronectin/αvβ3)
Conditions: vitronectin binding to immobilized purified human αvβ3; mean ± spread; read-out: αvβ3IC50
Protocol: In Vitro Solid Phase Purified αvβ3 Binding Assay Human αvβ3 (Chemicon International Inc., Temecula, Calif.), at a concentration of 1 μg/ml dissolved in Tris buffer (20 mM Tris, 1 mM CaCl2, 1 mM MgCl2, 10 μM MnCl2, 150 mM NaCl), was immobilized on Immulon 96 well plates (Dynex Technologies, Chantilly, Va.) overnight at 4° C. […] Plates were read at 490 nm on a Molecular Devices (Sunnyvale, Calif.) microplate reader.
readout: IC50 (nM)

Please review the entries below; each comes with its answer.
compound: O=C(O)CC(CCC1CCN(C(=O)c2cccc(NC3=NCCCN3)c2)CC1)c1cnc2ccccc2c1 (stereo not shown) [Cpd 12]
IC50 [nM]: 4.2
//
compound: O=C(O)CCC1CCN(C(=O)Cc2cccc(NC3=NCCCN3)c2)CC1 [Cpd 1]
IC50 [nM]: 56
//
compound: O=C(O)CC(CC1CCN(C(=O)CCc2ccc3c(n2)NCCC3)CC1)c1ccc2ccccc2c1 (single isomer, unassigned) [Cpd 56b]
IC50 [nM]: 326
//
compound: O=C(O)CC(CC1CCN(C(=O)CCc2ccc3c(n2)NCCC3)CC1)C1CNc2ccccc2C1 (stereo not shown) [Cpd 19]
IC50 [nM]: 2.5
//
compound: COc1ccc(C(CC(=O)O)CC2CCN(C(=O)CCc3ccc4c(n3)NCCC4)CC2)cn1 (single isomer, unassigned) [Cpd 28b]
IC50 [nM]: 20.8
//
compound: O=C(O)CCC1CCN(C(=O)CCc2cccc(NC3=NCCCN3)c2)CC1 [Cpd 2]
IC50 [nM]: 5400
//
compound: O=C(O)CC(CC1CCN(C(=O)CCc2ccc3c(n2)NCCC3)CC1)c1cccnc1 (stereo not shown) [Cpd 45]
IC50 [nM]: 0.8
//
compound: O=C(O)CC(CC1CCN(C(=O)CCc2ccc3c(n2)NCCC3)CC1)c1cc(F)cc(F)c1 (stereo not shown) [Cpd 37]
IC50 [nM]: 15.8

a = CCOC(=O)CCCC1CCN(C(=O)CCc2ccc3c(n2)NCCC3)CC1 [Cpd 68]
b = CN(C)c1cccc(C(CC(=O)O)CC2CCN(C(=O)CCc3ccc4c(n3)NCCC4)CC2)c1 (racemic) [Cpd 75]
c = O=C(O)CC(CCC1CCN(C(=O)c2cccc(NC3=NCCCC3)c2)CC1)c1cnc2ccccc2c1 (stereo not shown) [Cpd 50]
Arrange the 3 compounds from largest to smallest IC50. List the labels according to the requested ordering.
a, c, b
(a: 413 nM, c: 15.6 nM, b: 5.3 nM)

1 = O=C(O)CC(CC1CCN(C(=O)CCc2ccc3c(n2)NCCC3)CC1)c1ccccc1 (stereo not shown) [Cpd 13]
2 = NC(=O)CC(CC1CCN(C(=O)CCc2ccc3c(n2)NCCC3)CC1)c1cccc(F)c1 (racemic) [Cpd 64]
3 = O=C(O)CC(CCC1CCN(C(=O)CCc2ccc3c(n2)NCCC3)CC1)c1ccc2c(c1)OCO2 (stereo not shown) [Cpd 20]
4 = O=C(O)CC(CC1CCN(C(=O)CCCc2ccc3c(n2)NCCC3)CC1)c1cnc2ccccc2c1 (stereo not shown) [Cpd 29]
Your job: order these 4 records by IC50, ascending. Order the labels as requested and list them.
4, 1, 2, 3
(4: 2.2 nM, 1: 3.2 nM, 2: 61.5 nM, 3: 142 nM)
